Values from the DeepSol protein solubility set

# Assay Protocol: soluble on expression in E. coli; label from the status in PepcDB or PDB records
Measurement Label: soluble on expression in E. coli

INPUT: # return recorded soluble on expression in E. coli for input MNIYQQLVKQKLKTITPEELVSYSREYGLPITTSQAKQILHLARTNDINVFDPEERKKWVRELAKITSPDIARKANELFLKFVQKK
OUTPUT: not soluble

INPUT: # return recorded soluble on expression in E. coli for input GSDPGPEAARLRFRCFHYEEATGPQEALAQLRELCRQWLRPEVRSKEQMLELLVLEQFLGALPPEIQARVQGQRPGSPEEAAALVDGLRREPGG
OUTPUT: soluble

INPUT: # return recorded soluble on expression in E. coli for input MSQLQEMMTVVSQREVAYNIFEMVLKGTLVDEMDLPGQFLHLAVPNGAMLLRRPISISSWDKRAKTCTILYRIGDETTGTYKLSKLESGAKVDVMGPLGNGFPVAEVTSTDKILIIGGGIGVPPLYELAKQLEKTGCQMTILLGFASENVKILENEFSNLKNVTLKIATDDGSYGTKGHVGMLMNEIDFEVDALYTCGAPAMLKAVAKKYDQLERLYISMESRMACGIGACYACVEHDKEDESHALKVCEDGPVFLGKQLSL
OUTPUT: soluble

INPUT: # return recorded soluble on expression in E. coli for input MAYKHILIAVDLSPESKVLVEKAVSMARPYNAKISLIHVDVNYSDLYTGLIDVNLGDMQKRISEETHHALTELSTNAGYPITETLSGSGDLGQVLVDAIKKYDMDLVVCGHHQDFWSKLMSSARQLINTVHVDMLIVPLRDEEE
OUTPUT: not soluble

INPUT: # return recorded soluble on expression in E. coli for input MTGAVCPGSFDPVTLGHVDIFERAAAQFDEVVVAILVNPAKTGMFDLDERIAMVKESTTHLPNLRVQVGHGLVVDFVRSCGMTAIVKGLRTGTDFEYELQMAQMNKHIAGVDTFFVATAPRYSFVSSSLAKEVAMLGGDVSELLPEPVNRRLRDRLNTERT
OUTPUT: not soluble

Continuing:
INPUT: # return recorded soluble on expression in E. coli for input MEQCNERPKVSVIIPVYNTCNYVQEALESICQQTLEELEIIVIDDGSTDCSRAIVEEIAIKDTRIQVYKQSNQGLSITRNQGLKFSTGEYIYFMDSDDFLEPDALELCYRKCTKEALDFVFFDAETFTIEPNIPESSFDYQRTLDLPEKICSGIDMLKTQLKTYKFKSSVCLNLFHREFICEERLSFYPGILHEDQLFMIQAYLHASKTGFIRRSFFHRRIRTNSIMTKKFTWKNMEGYLTVTNELLRELPIYPKTYHHTIFFFLRQMLDAAVWQAHTLSLPQRIKLFSLCLKYYRPYVTMRTLMVLLLKTSIHPRQ
OUTPUT: soluble

INPUT: # return recorded soluble on expression in E. coli for input MGSDKIHHHHHHMSQPVWPNFYIIGAVKSGTTSLYAYLRQHPQVFLPAMKEPHFFTQPHPSPEQRHWIQYVGNVEQYQQLYRGAERFPRIGDASPSYLWCEEAPERIHAVQPDARIIVILRDPVQRAHAQYLMDFNEGVLDLPFVEALQRDWTRPDKGWGISQLYVELGRYTAQIMRYQQQFGAGQVHVCLLEDLKKNPLAVLEDIADFLEIDRGPLHDMDLETVHNVHRLPRGNWARQLASGHISRYIGEHLFPRTWGEFVWRNVFLREGRKPPMDAEARSFLQAIYTPEIERLEQLLGRPLPELRISWKFSEPAGQSLSTALPPKPSGNR
OUTPUT: not soluble
